Reference source: PubChem BioAssay AID1347420

# tested on: Sulfhydryl oxidase 1 (Homo sapiens)
# run description: inhibition of human sulfhydryl oxidase QSOX1 – biochemical, HyperBlu H2O2 luminescence, HTS, primary screen (AID 1347420); also: values above 100% were filed as inconclusive
# condition notes: recombinant QSOX1, HyperBlu H2O2 luminescence; at 12.5 µM; hits give high values; active = any value above zero
About 980 (75%) of roughly 1,300 compounds were called active. Inconclusive results (about 4%) are left out. The list shows a part of the results.
Label condition not met if inhibition falls below 10%; label condition met in every other case.

-- ask inhibition >= 10% for "COc1cccc(-c2cc(=O)c3ccccc3o2)c1N" ?
-- reply condition not met

-- ask Dear colleague, could you confirm whether "Nc1nc2c(ncn2COC(CO)CO)c(=O)[nH]1" has inhibition at or above 10%?
-- reply condition met

-- ask Hi team, for CC(C)CC(NP(=O)(O)O[C@@H]1O[C@@H](C)[C@H](O)[C@@H](O)[C@H]1O)C(=O)NC(Cc1c[nH]c2ccccc12)C(=O)O (stereo partly specified) , is the recorded inhibition at or above 10%?
-- reply condition met

-- ask Form field: inhibition at least 10%? Entry: "C=CCNc1ncnc2ccc(Br)cc12"
-- reply condition met

-- ask Check this molecule for inhibition at or above 10%: "O=C1/C(=C/c2ccsc2)CC/C1=C\c1cccs1"
-- reply condition met

-- ask Evaluate "CN(C)c1nc(N(C)C)nc(N(C)C)n1" : inhibition at minimum 10%?
-- reply condition met
